target: CDK2/CycE (Homo sapiens (Human)); test: CDK2/CycE kinase assay (TR-FRET); assay type: biochemical; conditions: Method 2
Measured IC50 values are reported for all entries that follow.

>  <COMPOUND>
COc1cc(F)ccc1-c1ncnc(Nc2cc(C)cc(CS(C)(=O)=NC#N)c2)n1 (racemic)

>  <ASSAYED TARGET>
CDK2/CycE (Homo sapiens (Human))

>  <IC50 / nM>
250

$$$$
>  <COMPOUND>
C#CCOc1cc(F)ccc1-c1ncnc(Nc2cccc(CS(C)(=N)=O)c2)n1 (single isomer, unassigned) [Example 79]

>  <ASSAYED TARGET>
CDK2/CycE (Homo sapiens (Human))

>  <IC50 / nM>
440

$$$$
>  <COMPOUND>
CCOC(=O)N=S(C)(=O)Cc1cccc(Nc2ncnc(-c3ccc(Cl)cc3OC)n2)c1 (racemic)

>  <ASSAYED TARGET>
CDK2/CycE (Homo sapiens (Human))

>  <IC50 / nM>
5500

$$$$
>  <COMPOUND>
COc1cc(F)ccc1-c1ncnc(Nc2cccc(CS(C)(=O)=NC#N)c2)n1 (single isomer, unassigned) [Example 50]

>  <ASSAYED TARGET>
CDK2/CycE (Homo sapiens (Human))

>  <IC50 / nM>
430

$$$$
>  <COMPOUND>
CS(=N)(=O)Cc1cccc(Nc2ncnc(-c3ccccc3OCc3ccc(F)cc3)n2)c1 (racemic)

>  <ASSAYED TARGET>
CDK2/CycE (Homo sapiens (Human))

>  <IC50 / nM>
1900

$$$$
>  <COMPOUND>
CS(=N)(=O)Cc1cccc(Nc2ncnc(-c3ccc(F)cc3OCc3cncs3)n2)c1 (racemic)

>  <ASSAYED TARGET>
CDK2/CycE (Homo sapiens (Human))

>  <IC50 / nM>
1500

$$$$
>  <COMPOUND>
CCOC(=O)N=S(C)(=O)Cc1cccc(Nc2ncnc(-c3cc(F)ccc3OCC3CCOCC3)n2)c1 (racemic)

>  <ASSAYED TARGET>
CDK2/CycE (Homo sapiens (Human))

>  <IC50 / nM>
11000

$$$$

* * *

system: HeLa-MaTu-ADR, multidrug-resistant human cervical carcinoma cells; test: Proliferation assay (crystal violet), HeLa-MaTu-ADR; format: cell-based; conditions: Method 3, read-out: Inhibition of HeLa/MaTu/ADR cell proliferation, IC50
pIC50: −log10 of the molar value.
Measured pIC50 values are reported for all entries that follow.
PARAMETER MEASURED: pIC50

>  <MOLECULE>
C#CCOc1cc(F)ccc1-c1ncnc(Nc2cccc(CS(C)(=N)=O)c2)n1 (single isomer, unassigned)

>  <PARAMETER MEASURED>
pIC50

>  <RECORDED MEASUREMENT>
6.46

$$$$
>  <MOLECULE>
CS(=N)(=O)Cc1cccc(Nc2ncnc(-c3ccc(F)cc3OCc3ccc(F)cc3)n2)c1 (single isomer, unassigned)

>  <PARAMETER MEASURED>
pIC50

>  <RECORDED MEASUREMENT>
6.27

$$$$
>  <MOLECULE>
COc1cc(F)ccc1-c1ncnc(Nc2cc(F)cc(CS(C)(=O)=NC#N)c2)n1 (single isomer, unassigned)

>  <PARAMETER MEASURED>
pIC50

>  <RECORDED MEASUREMENT>
6.92

$$$$
>  <MOLECULE>
CS(=N)(=O)Cc1cccc(Nc2ncnc(-c3ccc(F)cc3OCc3ccnc(F)c3)n2)c1 (single isomer, unassigned)

>  <PARAMETER MEASURED>
pIC50

>  <RECORDED MEASUREMENT>
6.47

$$$$
>  <MOLECULE>
CC#CCOc1cc(F)ccc1-c1ncnc(Nc2cccc(CS(C)(=N)=O)c2)n1 (single isomer, unassigned)

>  <PARAMETER MEASURED>
pIC50

>  <RECORDED MEASUREMENT>
6.68

$$$$

* * *

molecular target: CDK2/CycE (Homo sapiens (Human)); test: CDK2/CycE kinase assay (TR-FRET); format: biochemical; details: Method 2

>  <COMPOUND>
COc1cc(F)ccc1-c1ncnc(Nc2cccc(CS(C)(=O)=NC(C)=O)c2)n1 (racemic)

>  <IC50 (nM)>
1800

$$$$
>  <COMPOUND>
C=C(CO)COc1cc(F)ccc1-c1ncnc(Nc2cccc(CS(C)(=N)=O)c2)n1 (racemic)

>  <IC50 (nM)>
730

$$$$
>  <COMPOUND>
CCOC(=O)N=S(C)(=O)Cc1cccc(Nc2ncnc(-c3cc(F)ccc3OC)n2)c1 (racemic)

>  <IC50 (nM)>
2000

$$$$
>  <COMPOUND>
COc1cc(F)ccc1-c1ncnc(Nc2cc(F)cc(CS(C)(=N)=O)c2)n1 (single isomer, unassigned) [Example 54]

>  <IC50 (nM)>
850

$$$$
>  <COMPOUND>
CS(=N)(=O)Cc1cccc(Nc2ncnc(-c3ccc(F)cc3OCc3ccc(Cl)cc3)n2)c1 (racemic)

>  <IC50 (nM)>
680

$$$$
>  <COMPOUND>
CNC(=O)N=S(C)(=O)Cc1cccc(Nc2ncnc(-c3ccc(F)cc3OC)n2)c1 (single isomer, unassigned; (+)) [Example 17]

>  <IC50 (nM)>
1200

$$$$
>  <COMPOUND>
CS(=N)(=O)Cc1cccc(Nc2ncnc(-c3ccc(F)cc3OCc3cccc(C#N)c3)n2)c1 (racemic)

>  <IC50 (nM)>
180

$$$$

* * *

target: CDK2/CycE (Homo sapiens (Human), UniProt P24941); assay: CDK2/CycE kinase assay (TR-FRET); type: biochemical; settings: Method 2
PARAMETER MEASURED: IC50

>  <COMPOUND>
CS(=N)(=O)Cc1cccc(Nc2ncnc(-c3ccccc3OCc3ccc(Cl)c(Cl)c3)n2)c1 (racemic) [Example 61]

>  <PARAMETER MEASURED>
IC50

>  <RECORDED MEASUREMENT>
1.2 µM

$$$$
>  <COMPOUND>
CS(=N)(=O)Cc1cccc(Nc2ncnc(-c3ccc(F)cc3OCc3ccnc(F)c3)n2)c1 (racemic) [Example 82]

>  <PARAMETER MEASURED>
IC50

>  <RECORDED MEASUREMENT>
0.36 µM

$$$$
>  <COMPOUND>
CS(=N)(=O)Cc1cccc(Nc2ncnc(-c3ccc(F)cc3OCc3ccon3)n2)c1 (racemic) [Example 93]

>  <PARAMETER MEASURED>
IC50

>  <RECORDED MEASUREMENT>
2 µM

$$$$
>  <COMPOUND>
COc1cc(Cl)ccc1-c1ncnc(Nc2cccc(CS(C)(=N)=O)c2)n1 (single isomer, unassigned) [Example 14]

>  <PARAMETER MEASURED>
IC50

>  <RECORDED MEASUREMENT>
13 µM

$$$$
>  <COMPOUND>
COc1cc(F)ccc1-c1ncnc(Nc2cc(Cl)cc(CS(C)(=N)=O)c2)n1 (racemic) [Example 64]

>  <PARAMETER MEASURED>
IC50

>  <RECORDED MEASUREMENT>
0.25 µM

$$$$
>  <COMPOUND>
CS(=N)(=O)Cc1cccc(Nc2ncnc(-c3ccc(F)cc3OCc3ccccc3)n2)c1 (racemic) [Example 6]

>  <PARAMETER MEASURED>
IC50

>  <RECORDED MEASUREMENT>
0.22 µM

$$$$
>  <COMPOUND>
COc1cc(F)ccc1-c1ncnc(Nc2cc(F)cc(CS(C)(=O)=NC#N)c2)n1 (racemic) [Example 70]

>  <PARAMETER MEASURED>
IC50

>  <RECORDED MEASUREMENT>
0.18 µM

$$$$

* * *

Measured IC50 values are reported for all entries that follow.
molecular target: CDK2/CycE (Homo sapiens (Human)); assay: CDK2/CycE kinase assay (TR-FRET); assay type: biochemical; details: Method 2

>  <COMPOUND>
CC(Oc1cc(F)ccc1-c1ncnc(Nc2cccc(CS(C)(=N)=O)c2)n1)c1ccc(F)cc1 (stereo not shown)

>  <UNIT OF MEASURE>
µM

>  <IC50>
3.5

$$$$
>  <COMPOUND>
COc1cc(F)ccc1-c1ncnc(Nc2cccc(CS(=N)(=O)C3CCOCC3)c2)n1 (racemic)

>  <UNIT OF MEASURE>
µM

>  <IC50>
5.2

$$$$
>  <COMPOUND>
CCOC(=O)N=S(C)(=O)Cc1cccc(Nc2ncnc(-c3cccc4c3OCC4)n2)c1 (racemic)

>  <UNIT OF MEASURE>
µM

>  <IC50>
3.1

$$$$
>  <COMPOUND>
CC#CCOc1cc(F)ccc1-c1ncnc(Nc2cccc(CS(C)(=N)=O)c2)n1 (single isomer, unassigned) [Example 75]

>  <UNIT OF MEASURE>
µM

>  <IC50>
0.45

$$$$
>  <COMPOUND>
CS(=N)(=O)Cc1cccc(Nc2ncnc(-c3ccc(F)cc3OCCC(F)(F)F)n2)c1 (racemic)

>  <UNIT OF MEASURE>
µM

>  <IC50>
6

$$$$
>  <COMPOUND>
C=C(C)COc1cc(F)ccc1-c1ncnc(Nc2cccc(CS(C)(=N)=O)c2)n1 (racemic)

>  <UNIT OF MEASURE>
µM

>  <IC50>
0.25

$$$$
>  <COMPOUND>
CS(=N)(=O)Cc1cccc(Nc2ncnc(-c3cccc4c3OCCO4)n2)c1 (single isomer, unassigned) [Example 39]

>  <UNIT OF MEASURE>
µM

>  <IC50>
1.5

$$$$
